Test: Average peak plasma drug concentration after id dose of 10 mg/kg in ferrets(Plasma samples collected from arterial blood).
Details: ferret, in vivo
measured-quantity: Cmax
Reply with a number, then the unit it belongs to.

Value of Cmax reported for the molecule CCCC[C@H](N[C@@H](Cc1ccccc1)C(=O)N1CCC(OCOC)CC1)C(=O)N[C@@H](CC1CCCCC1)[C@@H](O)C[C@H](C(=O)NCCCN1CCOCC1)C(C)C is 3490 ng/mL

---

Experiment: Bioavailability in monkey (i.d. dosing)
Type: ADME, organism-based
Conditions: primates, in vivo
measured-quantity: bioavailability (%)
// units = %; emit number, no label

Value of bioavailability reported for the compound CCCC[C@H](O[C@@H](Cc1ccccc1)C(=O)N1CCC(OCOC)CC1)C(=O)N[C@@H](CC1CCCCC1)[C@@H](O)C[C@H](C(=O)NCCCN1CCOCC1)C(C)C is 16

---

Experiment: Average peak plasma drug concentration after id dose of 10 mg/kg in ferrets(Plasma samples collected from portal blood).
Details: ferret, in vivo
measured-quantity: Cmax (ng/mL)
// units = ng/mL; emit number, no label

Value of Cmax reported for the compound CCCC[C@H](N[C@@H](Cc1ccccc1)C(=O)N1CCC(OCOC)CC1)C(=O)N[C@@H](CC1CCCCC1)[C@@H](O)C[C@H](C(=O)NCCCN1CCOCC1)C(C)C is 4350

---

Assay: Partition coefficient (logD6.5)
Settings: octanol/water, pH 6.5
Please go through the items and note down their logD.
// response body must contain only the number

Value of logD reported for the compound CCCC[C@H](O[C@@H](Cc1ccccc1)C(=O)N1CCC(OCOC)CC1)C(=O)N[C@@H](CC1CCCCC1)[C@@H](O)C[C@H](C(=O)NCCCN(C)C)C(C)C is 2.3

Value of logD reported for the compound CCCC[C@H](O[C@@H](Cc1ccccc1)C(=O)N1CCC(OCOC)CC1)C(=O)N[C@@H](CC1CCCCC1)[C@@H](O)C[C@H](NC(=O)OCCCN(C)C)C(C)C is 2.9

Value of logD reported for the compound CCCC[C@H](O[C@@H](Cc1ccccc1)C(=O)N1CCC(OCOC)CC1)C(=O)N[C@@H](CC1CCCCC1)[C@@H](O)C[C@H](C(=O)NCCCN1CCOCC1)C(C)C is 3.3

Value of logD reported for the compound CCCC[C@H](N[C@@H](Cc1ccccc1)C(=O)N1CCC(OCOC)CC1)C(=O)N[C@@H](CC1CCCCC1)[C@@H](O)C[C@H](C(=O)NCCCN1CCOCC1)C(C)C is 3.9

Value of logD reported for the compound CCCC[C@H](O[C@@H](Cc1ccccc1)C(=O)N1CCC(OCOC)CC1)C(=O)N[C@@H](CC1CCCCC1)[C@@H](O)C[C@H](C(=O)N1CCCN(C)CC1)C(C)C is 3.7

Value of logD reported for the compound CCCC[C@H](O[C@@H](Cc1ccccc1)C(=O)N1CCC(OCOC)CC1)C(=O)N[C@@H](CC1CCCCC1)[C@@H](O)C[C@H](C(=O)NCCN(C)C)C(C)C is 3.3

Value of logD reported for the compound CCCC[C@H](O[C@@H](Cc1ccccc1)C(=O)N1CCC(OCOC)CC1)C(=O)N[C@@H](CC1CCCCC1)[C@@H](O)C[C@H](C(=O)N(C)CCCN(C)C)C(C)C is 2.5

Value of logD reported for the compound CCCC[C@H](N[C@@H](Cc1ccccc1)C(=O)N1CCC(OCOC)CC1)C(=O)N[C@@H](CC1CCCCC1)[C@@H](O)C[C@H](C(=O)NCCCN(C)C)C(C)C is 2.2

Value of logD reported for the compound CCCC[C@H](O[C@@H](Cc1ccccc1)C(=O)N1CCC(OCOC)CC1)C(=O)N[C@@H](CC1CCCCC1)[C@@H](O)C[C@H](NC(=O)OCCc1ccccn1)C(C)C is 2.7

Value of logD reported for the compound CCCC[C@H](O[C@@H](Cc1ccccc1)C(=O)N1CCC(OCOC)CC1)C(=O)N[C@@H](CC1CCCCC1)[C@@H](O)C[C@H](C(=O)N(C)CCN(C)C)C(C)C is 3.3

Value of logD reported for the compound CCCC[C@H](O[C@@H](Cc1ccccc1)C(=O)N1CCC(OCOC)CC1)C(=O)N[C@@H](CC1CCCCC1)[C@@H](O)C[C@H](NC(=O)OCCN1CCOCC1)C(C)C is 3.6
